- subject of test: GST-NTL8 NAC domain (Arabidopsis thaliana, UniProt Q9XIN7 14-156)
- Sequence: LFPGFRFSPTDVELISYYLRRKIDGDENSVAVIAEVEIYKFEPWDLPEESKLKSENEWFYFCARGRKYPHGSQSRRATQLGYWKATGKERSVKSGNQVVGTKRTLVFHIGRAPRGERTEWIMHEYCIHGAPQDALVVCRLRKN
- test description: universal protein binding microarray (PBM); high values mean tight binding
- test parameters: protein: recombinant; tags: GST; chain copies: 2; dsDNA, one strand shown
measurement kind: binding signal (E-score)
Answer format: numeric, E-score implied, no suffix.

Query: Dear colleague, I am looking for the recorded binding signal of the following sequence: `AAGGGTAA`
Reply: 0.444

Query: `AGTCAACA` , same question.
Reply: 0.0937

Query: `GCAAGGAA` , same question.
Reply: 0.431

Query: `TTACGTAA` , same question.
Reply: 0.411

Query: `TTAAGGAA` , same question.
Reply: 0.293

Query: `ACGTAACT` , same question.
Reply: 0.247

Query: `GCAAGAAA` , same question.
Reply: 0.229

Query: `AGGAAAGG` , same question.
Reply: 0.44

Query: `AGGAAATC` , same question.
Reply: 0.437

Query: `GTTGCTTA` , same question.
Reply: 0.13

Query: `AAGGGAAA` , same question.
Reply: 0.476

Query: `GTCAATCA` , same question.
Reply: 0.0888

Query: `CCTCTGAC` , same question.
Reply: 0.12

Query: `ACAGGGAA` , same question.
Reply: 0.409

Query: `GGGGGGAA` , same question.
Reply: 0.453

Query: `ACACTCAA` , same question.
Reply: 0.0774

Query: `GTTACTTA` , same question.
Reply: 0.286

Query: `CTACGTAA` , same question.
Reply: 0.105

Query: `TAACGTAA` , same question.
Reply: 0.174

Query: `CGAAGTAA` , same question.
Reply: 0.416

Query: `ACTGACCT` , same question.
Reply: 0.109

Query: `ACCTTACC` , same question.
Reply: 0.417

----------
- subject of test: GST-NST2(1-184) (Arabidopsis thaliana, UniProt Q9M274 1-184)
- Sequence: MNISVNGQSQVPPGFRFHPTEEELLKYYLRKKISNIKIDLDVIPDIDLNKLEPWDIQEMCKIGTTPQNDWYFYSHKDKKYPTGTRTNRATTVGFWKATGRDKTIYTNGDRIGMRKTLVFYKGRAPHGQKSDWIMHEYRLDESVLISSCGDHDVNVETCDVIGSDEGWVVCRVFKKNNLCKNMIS
- test description: universal protein binding microarray (PBM); transcription factors of Arabidopsis thaliana; high values mean tight binding
- test parameters: protein: recombinant; tags: GST; chain copies: 2; dsDNA, one strand shown
measurement kind: binding signal (E-score)
Answer format: numeric, E-score implied, no suffix.

Query: Dear colleague, I am looking for the recorded binding signal of the following sequence: `CAAGACCA`
Reply: 0.0893

Query: `TTACGGAA` , same question.
Reply: 0.199

Query: `TCACGCCA` , same question.
Reply: 0.263

Query: `GAAGGAAC` , same question.
Reply: 0.249

Query: `CAAGGAAA` , same question.
Reply: 0.189

Query: `AAGGTCAA` , same question.
Reply: 0.0822

Query: `GAGGTAAC` , same question.
Reply: 0.078

Query: `GAAGCAAC` , same question.
Reply: 0.282

Query: `CGAGGAAA` , same question.
Reply: 0.0987

Query: `ACACGTTA` , same question.
Reply: 0.358

Query: `CTACGTTA` , same question.
Reply: 0.335

Query: `ACGCTATC` , same question.
Reply: 0.303

Query: `TGCCGTAA` , same question.
Reply: 0.328

Query: `AGGAAACG` , same question.
Reply: 0.132

Query: `ACACGTAT` , same question.
Reply: 0.19

Query: `AGTCAGAA` , same question.
Reply: 0.119

Query: `CACGTCAC` , same question.
Reply: 0.217

Query: `GGCGTAAC` , same question.
Reply: 0.129

Query: `AACTTGAC` , same question.
Reply: 0.173

Query: `AATGTCAA` , same question.
Reply: 0.0715

Query: `CAAGCAAC` , same question.
Reply: 0.311

Query: `CAAGTTAC` , same question.
Reply: 0.238

Query: `ATGCGTAC` , same question.
Reply: 0.192

Query: `ATTGACTA` , same question.
Reply: 0.182

Query: `ACGTTATC` , same question.
Reply: 0.299

Query: `ATTGCGTG` , same question.
Reply: 0.459

Query: `ACGTTACA` , same question.
Reply: 0.222

Query: `ACGTGTAC` , same question.
Reply: 0.201

Query: `TAGCGTGA` , same question.
Reply: 0.228

Query: `ACGTCTCC` , same question.
Reply: 0.167

Query: `ACGTTACT` , same question.
Reply: 0.268

Query: `CGTCAAAC` , same question.
Reply: 0.159

Query: `TCACGTCA` , same question.
Reply: 0.188

Query: `CGAAGTAA` , same question.
Reply: 0.223

Query: `AAGGAAAG` , same question.
Reply: 0.239

Query: `TTAAGCAA` , same question.
Reply: 0.334

Query: `ACGGAACA` , same question.
Reply: 0.166

Query: `GTACGTAA` , same question.
Reply: 0.276

Query: `ACGTCAAA` , same question.
Reply: 0.261

Query: `CGAAGCAA` , same question.
Reply: 0.208

Query: `ACTTAACC` , same question.
Reply: 0.164

Query: `ATAGTCAA` , same question.
Reply: 0.146

Query: `CACGTTAA` , same question.
Reply: 0.301

Query: `AGGGTAAG` , same question.
Reply: 0.0565

Query: `CTACGCAA` , same question.
Reply: 0.364

Query: `CGGTCAAA` , same question.
Reply: 0.0603
